target: Human immunodeficiency virus type 1 reverse transcriptase (Human immunodeficiency virus 1); test: Inhibition of HIV1 wild type reverse transcriptase/poly(rA)/oligo(dT) DNA binary complex
measurement_name: Ki
Quote the value and follow it with the unit of measurement.

Find the measured Ki of CCC1(c2ccc(CSc3ccc(Br)cc3)cc2)Oc2ccccc2-n2cccc2C1=O (single isomer, unassigned; (+)) and report it.
0.4 µM

Find the measured Ki of CCC1(c2ccc(CSc3ccc(F)cc3Cl)cc2)Oc2ccccc2-n2cccc2C1=O (single isomer, unassigned; (+)) and report it.
0.09 µM

Find the measured Ki of CCC1(c2ccc(CSc3ccccc3)cc2)Oc2ccccc2-n2cccc2C1=O (single isomer, unassigned; (+)) and report it.
0.42 µM

----------
biological target: Human immunodeficiency virus type 1 reverse transcriptase (Human immunodeficiency virus 1, UniProt Q72547, V179D); test: Inhibition of HIV1 reverse transcriptase V179D mutant
The compounds listed here are annotated with their IC50.

Please review the entries below; each comes with its answer.
CCC1(c2ccc(CSc3c(Cl)cccc3Cl)cc2)Oc2ccccc2-n2cccc2C1=O (racemic)	> 40 µM
CCC1(c2ccc(CSc3ccc(F)cc3)cc2)Oc2ccccc2-n2cccc2C1=O (racemic)	> 40 µM

Kindly consider the entry below.
Find the measured IC50 of CCC1(c2ccc(CSc3ccc(F)cc3Cl)cc2)Oc2ccccc2-n2cccc2C1=O (racemic) and report it.
> 40 µM
